Reference for the values: patent EP0432442A1

- SUBJECT_OF_TEST: acyl-CoA: cholesterol acyltransferase (ACAT)
- TEST_SUMMARY: in vitro ACAT inhibition: formation of radiolabeled cholesterol oleate from radiolabeled oleic acid in rabbit intestinal microsomes
- CONDITION_NOTES: tissue preparation containing rabbit intestinal microsomes
Sorting guide: entries reporting IC50 beneath 100 nM go in the True pile, the rest go in the False pile.

COCCCCCC(=O)NC(CNC(=O)Nc1c(C(C)C)cccc1C(C)C)c1ccccc1 (racemic) ... False
CC(C)c1cccc(C(C)C)c1NC(=O)NCC(NC(=O)c1ccccc1)c1ccccc1 (racemic) ... False
CC(C)c1cccc(C(C)C)c1NC(=O)NCC(NC(=O)c1ccccn1)c1ccccc1 (racemic) ... True

Would you kindly verify if IC50 of CC(C)c1cccc(C(C)C)c1NC(=O)NCC(NC(=O)CCCCCBr)c1ccccc1 (racemic) is strictly less than 100 nM?
False

State whether 100 nM exceeds IC50 recorded for CCCCCCCNC(CNC(=O)Nc1c(C(C)C)cccc1C(C)C)c1ccccc1 (racemic) .
False

Field: below-cutoff. Rule: recorded IC50 strictly less than 100 nM. Subject: CCCCCCC(=O)NC(CNC(=O)Nc1c(C(C)C)cccc1C(C)C)c1ccccc1 (racemic)
False

Please determine if CC(C)c1cccc(C(C)C)c1NC(=O)NCC(NCc1ccccc1)c1ccccc1 (racemic) is below 100 nM in terms of IC50.
True
